- Target: Breakpoint cluster region protein (Homo sapiens, UniProt P11274)
- Sequence (P11274 whole entry): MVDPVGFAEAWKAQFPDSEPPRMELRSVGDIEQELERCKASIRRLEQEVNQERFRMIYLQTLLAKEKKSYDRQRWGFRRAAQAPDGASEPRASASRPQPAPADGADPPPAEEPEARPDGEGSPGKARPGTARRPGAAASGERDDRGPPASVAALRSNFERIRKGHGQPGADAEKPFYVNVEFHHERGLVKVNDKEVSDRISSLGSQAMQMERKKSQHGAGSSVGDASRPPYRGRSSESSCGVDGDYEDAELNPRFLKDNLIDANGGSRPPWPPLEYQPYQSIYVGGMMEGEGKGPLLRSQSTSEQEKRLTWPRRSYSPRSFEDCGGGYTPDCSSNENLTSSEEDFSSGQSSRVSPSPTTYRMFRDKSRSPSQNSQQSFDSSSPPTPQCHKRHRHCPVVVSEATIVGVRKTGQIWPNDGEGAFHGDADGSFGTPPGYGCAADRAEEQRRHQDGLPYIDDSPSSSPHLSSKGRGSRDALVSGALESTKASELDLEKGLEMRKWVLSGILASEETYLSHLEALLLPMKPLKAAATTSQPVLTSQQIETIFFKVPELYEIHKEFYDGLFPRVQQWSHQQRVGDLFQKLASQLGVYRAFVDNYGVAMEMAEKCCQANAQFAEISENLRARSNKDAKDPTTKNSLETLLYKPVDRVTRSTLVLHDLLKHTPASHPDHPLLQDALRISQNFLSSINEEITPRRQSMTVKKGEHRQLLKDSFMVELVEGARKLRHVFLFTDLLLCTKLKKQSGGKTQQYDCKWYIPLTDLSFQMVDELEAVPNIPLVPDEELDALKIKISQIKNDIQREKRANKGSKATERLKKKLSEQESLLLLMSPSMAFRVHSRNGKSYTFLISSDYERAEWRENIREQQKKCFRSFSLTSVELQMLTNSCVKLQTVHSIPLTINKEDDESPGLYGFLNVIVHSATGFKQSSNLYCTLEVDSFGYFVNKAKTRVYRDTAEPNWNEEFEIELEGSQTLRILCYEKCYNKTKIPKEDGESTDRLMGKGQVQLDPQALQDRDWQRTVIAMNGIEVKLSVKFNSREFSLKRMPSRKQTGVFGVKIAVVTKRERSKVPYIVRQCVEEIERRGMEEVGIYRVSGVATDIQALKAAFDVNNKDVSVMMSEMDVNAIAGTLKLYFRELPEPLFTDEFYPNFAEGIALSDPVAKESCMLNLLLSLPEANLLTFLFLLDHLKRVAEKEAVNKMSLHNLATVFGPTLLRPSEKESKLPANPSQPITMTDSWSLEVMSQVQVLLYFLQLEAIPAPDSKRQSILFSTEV
- Experiment description: Inhibitory concentration required to inhibit Bcr-Abl tyrosine kinase
pIC50: −log10 of the molar value.

[
  {
    "Molecular string": "Cc1ccc(NC(=O)Nc2cccc(N(C)C)c2)cc1Nc1nccc(-c2cccnc2)n1",
    "Target": "Breakpoint cluster region protein (Homo sapiens, UniProt P11274)",
    "pIC50": 6.24
  }
]

====

Known pIC50 of a selection of compounds
- Experiment description: Inhibitory concentration required to inhibit PDGFR kinase was determined
pIC50: −log10 of the molar value.

[
  {
    "Molecular string": "Cc1ccc(NC(=O)NCCCO)cc1Nc1nccc(-c2cccnc2)n1",
    "Bound type": "<",
    "pIC50": 5.52
  },
  {
    "Molecular string": "Cc1ccc(NC(=O)NCCN2CCCC2)cc1Nc1nccc(-c2cccnc2)n1",
    "Bound type": "=",
    "pIC50": 6.18
  },
  {
    "Molecular string": "Cc1ccc(NC(=O)NCc2ccc(N(C)C)cc2)cc1Nc1nccc(-c2cccnc2)n1",
    "Bound type": "=",
    "pIC50": 6.63
  },
  {
    "Molecular string": "Cc1ccc(NC(=O)Nc2cccc(CN3CCN(C)CC3)c2)cc1Nc1nccc(-c2cccnc2)n1",
    "Bound type": "=",
    "pIC50": 6.72
  },
  {
    "Molecular string": "Cc1ccc(NC(=O)N2CCC(N3CCCC3)CC2)cc1Nc1nccc(-c2cccnc2)n1",
    "Bound type": "=",
    "pIC50": 6.75
  },
  {
    "Molecular string": "Cc1ccc(NC(=O)N2CCN(C)CC2)cc1Nc1nccc(-c2cccnc2)n1",
    "Bound type": "=",
    "pIC50": 6.88
  },
  {
    "Molecular string": "Cc1ccc(NC(=O)N2CCN(Cc3ccncc3)CC2)cc1Nc1nccc(-c2cccnc2)n1",
    "Bound type": "=",
    "pIC50": 6.59
  },
  {
    "Molecular string": "Cc1ccc(NC(=O)Nc2cccc(Cl)c2)cc1Nc1nccc(-c2cccnc2)n1",
    "Bound type": "=",
    "pIC50": 7.77
  },
  {
    "Molecular string": "Cc1ccc(NC(=O)Nc2cccnc2)cc1Nc1nccc(-c2cccnc2)n1",
    "Bound type": "=",
    "pIC50": 7.02
  },
  {
    "Molecular string": "Cc1ccc(NC(=O)N(C)CCCO)cc1Nc1nccc(-c2cccnc2)n1",
    "Bound type": "<",
    "pIC50": 5.52
  }
]
